experiment: soluble on expression in E. coli; label from the status in PepcDB or PDB records
MEASURE: soluble on expression in E. coli

| SEQUENCE_INPUT | MEASUREMENT |
| --- | --- |
| LPLRESHTAHQATDFGVKVFQQVVQASKDRNVVFSPYGVSSVLAMLQMTTAGKTRRQIQDAMGFKVNEKGTAHALRQLSKELMGPWNKNEISTADAIFVQRDLELVQGFMPHFFKLFQTMVKQVDFSEVERARFIINDWVERHTKGMINDLLAKGAVDELTRLVLVNALYFSGQWKTPFLEASTHQRLFHKSDGSTVSVPMMAQSNKFNYTEFTTPDGLEYDVVELPYQGDTLSMFIAAPFEKDVHLSALTNILDAELIRQWKGNMTRLPRLLILPKFSLETEVDLRGPLEKLGMPDMFSATLADFTSLSDQEQLSVAQALQKVRIEVNESGTVASSSTAFVISARMAPTEMVIDRSFLFVVRHNPTETILFMGQVMEP | soluble |
| MGNIVKPFKQQPSSFAYQPLTVPLIPEVEAQSENLRVFSFKEWMKATKKSRQDRVVIRDDHYIRSFYKGYIDNTTFAPSRTKTGTPVSVVEYLHGSSQALQEWVDIFGVILLELLVGSQDRSTALKNQSSDWTGSFLPDNYKIGEIIDPRIGSDYPVDAATKIGLGPNVRCPYIGHRDMDKC | soluble |

From: the DeepSol protein solubility set
